Biological target: HLA-B*39:01
Experiment: IEDB peptide-MHC binding, purified MHC/direct/fluorescence; filed as Kd, often an IC50 or EC50 that approximates it; bounds were set here for any values at or beyond the usual limits of such assays
Details: source organism: Yellow fever virus
measured property: Kd

Consider the reported Kd for these sequences:
>  <chain sequence>
GEAMDTISV

>  <tested on>
HLA-B*39:01

>  <assay result>
≥ 20 µM

$$$$
>  <chain sequence>
FHKRDMRLL

>  <tested on>
HLA-B*39:01

>  <assay result>
≥ 20 µM

$$$$

// Kd value for "ERWFVRNPF" : ≥ 20 µM

----------
Assignment: determine reported pKd for the given sequences.
Molecular target: HLA-A*26:01
Assay: IEDB peptide-MHC binding, purified MHC/direct/fluorescence; filed as Kd, often an IC50 or EC50 that approximates it; bounds were set here for any values at or beyond the usual limits of such assays
Conditions: source organism: Yellow fever virus
pKd: −log10 of the molar value.

Consider the reported pKd for these sequences:
>  <chain sequence>
FLILGMLLM

>  <pKd>
≤ 4.70

$$$$
>  <chain sequence>
GTGDSRLTY

>  <pKd>
≤ 4.70

$$$$

# context switch: different sequence, same pKd
Reported pKd (HLA-A*26:01) for entry "YVIRDLAAM" is ≥ 9.00
